Test system: 885724-159-R-J1-PDC complex spheroid viability
test name: Anticancer human tumor 885724-159-R-J1-PDC patient-derived pancreatic adenocarcinoma cell line growth inhibition [POLQ]
condition set: second compound 0.1 µM; first compound 10 µM; hits give low values
property: viability, T/C (%)
Give bare numbers, in %.

stdin: Missing value: viability, T/C, 885724-159-R-J1-PDC complex spheroid viability, entry O=C(Nc1ccc(O)c(NS(=O)(=O)c2ccc(F)cc2)c1)c1ccc(-c2ccccc2)cc1 + COC1C(OC(N)=O)C(O)C(Oc2ccc3c(O)c(NC(=O)c4ccc(O)c(CC=C(C)C)c4)c(=O)oc3c2C)OC1(C)C . Fill in?
stdout: 72.7

stdin: Missing value: viability, T/C, 885724-159-R-J1-PDC complex spheroid viability, entry O=c1[nH]cc(F)c(=O)[nH]1 + Nc1ccc(C#CCN(C(=O)Cc2ncc(C(F)(F)F)cc2C(F)(F)F)c2ccc(F)cc2)nn1 . Fill in?
stdout: 74.9

stdin: Missing value: viability, T/C, 885724-159-R-J1-PDC complex spheroid viability, entry CC1COCCN1c1cc(C2(O)CC3CCC(C2)O3)c2cnn(-c3ccn[nH]3)c2n1 (stereo not given) + Nc1ccc(C#CCN(C(=O)Cc2ncc(C(F)(F)F)cc2C(F)(F)F)c2ccc(F)cc2)nn1 . Fill in?
stdout: 31.4

stdin: Missing value: viability, T/C, 885724-159-R-J1-PDC complex spheroid viability, entry C#Cc1c(F)ccc2cc(O)cc(-c3ncc4c(N5CC6CCC(C5)N6)nc(OCC56CCCN5CC(F)C6)nc4c3F)c12 (stereo not given) + Cc1cccc(N(C)C(=O)C2C(O)CCN2c2nc(C)cc(C(F)(F)F)c2C#N)c1 . Fill in?
stdout: 18.4

New cases:
stdin: Missing value: viability, T/C, 885724-159-R-J1-PDC complex spheroid viability, entry C=CC(=O)N1CCN(c2nc(=O)n(-c3c(C)ccnc3C(C)C)c3nc(-c4c(O)cccc4F)c(F)cc23)C(C)C1 (stereo not given) + Cc1cccc(N(C)C(=O)C2C(O)CCN2c2nc(C)cc(C(F)(F)F)c2C#N)c1 . Fill in?
stdout: 88.7

###

Tested on: 885724-159-R-J1-PDC complex spheroid viability
test name: Anticancer human tumor 885724-159-R-J1-PDC cell line growth inhibition [POLQ];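 also: spheroids exposed to compounds for 7 days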
condition set: second compound 3.16 µM; first compound 3.16 µM; hits give low values
Would you mind telling me the reported viability, T/C of each entry?
Answers are plain numbers, in %.

Solved cases below.
stdin: // lookup viability, T/C for CC(C)n1c(=O)n(C)c2cnc3cc(F)c(-c4ccc(OCCCN5CCCCC5)nc4)cc3c21 + COC1C(OC(N)=O)C(O)C(Oc2ccc3c(O)c(NC(=O)c4ccc(O)c(CC=C(C)C)c4)c(=O)oc3c2C)OC1(C)C
stdout: 98.7

stdin: // lookup viability, T/C for CCc1cc2c(N3CCc4c(cc(Cn5ccnc5)cc4-c4cn(C)nc4C(F)(F)F)C3=O)cc(C)nc2c(OC)n1 + Nc1ccc(C#CCN(C(=O)Cc2ncc(C(F)(F)F)cc2C(F)(F)F)c2ccc(F)cc2)nn1
stdout: 75.2

stdin: // lookup viability, T/C for COc1ccc([C@@H](O)c2cc(-c3ncnc4cc(N5CCOCC5)ccc34)c(F)cc2Cl)nn1 + Nc1ccc(C#CCN(C(=O)Cc2ncc(C(F)(F)F)cc2C(F)(F)F)c2ccc(F)cc2)nn1
stdout: 56

stdin: // lookup viability, T/C for COc1cc2cc(C(=O)CCC(=O)O)sc2cc1OC + COC1C(OC(N)=O)C(O)C(Oc2ccc3c(O)c(NC(=O)c4ccc(O)c(CC=C(C)C)c4)c(=O)oc3c2C)OC1(C)C
stdout: 113

stdin: // lookup viability, T/C for O=C(c1cc(Cc2n[nH]c(=O)c3ccccc23)ccc1F)N1CCN(C(=O)C2CC2)CC1 + Nc1ccc(C#CCN(C(=O)Cc2ncc(C(F)(F)F)cc2C(F)(F)F)c2ccc(F)cc2)nn1
stdout: 88.1

Need viability, T/C for each of these molecules.
1. COc1ccc([C@@H](O)c2cc(-c3ncnc4cc(N5CCOCC5)ccc34)c(F)cc2Cl)nn1 + COC1C(OC(N)=O)C(O)C(Oc2ccc3c(O)c(NC(=O)c4ccc(O)c(CC=C(C)C)c4)c(=O)oc3c2C)OC1(C)C
2. C=CC(=O)N1CCN(c2nc(=O)n(-c3c(C)ccnc3C(C)C)c3nc(-c4c(O)cccc4F)c(F)cc23)C(C)C1 (stereo not given) + Cc1cccc(N(C)C(=O)C2C(O)CCN2c2nc(C)cc(C(F)(F)F)c2C#N)c1
3. C=CC(=O)N1CCN(c2nc(=O)n(-c3c(C)ccnc3C(C)C)c3nc(-c4c(O)cccc4F)c(F)cc23)C(C)C1 (stereo not given) + Nc1ccc(C#CCN(C(=O)Cc2ncc(C(F)(F)F)cc2C(F)(F)F)c2ccc(F)cc2)nn1

stdout:
52.5
110
117

Need viability, T/C for each of these molecules.
1. CC1COCCN1c1cc(C2(S(C)(=N)=O)CC2)nc(-c2ccnc3[nH]ccc23)n1 (stereo not given) + Cc1cccc(N(C)C(=O)C2C(O)CCN2c2nc(C)cc(C(F)(F)F)c2C#N)c1
2. O=C(c1cc(Cc2n[nH]c(=O)c3ccccc23)ccc1F)N1CCN(C(=O)C2CC2)CC1 + COC1C(OC(N)=O)C(O)C(Oc2ccc3c(O)c(NC(=O)c4ccc(O)c(CC=C(C)C)c4)c(=O)oc3c2C)OC1(C)C

stdout:
1. 51.7
2. 92.8

###

Tested on: 885724-159-R-J1-PDC complex spheroid viability
test name: Anticancer human tumor 885724-159-R-J1-PDC cell line growth inhibition [POLQ];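 also: spheroids exposed to compounds for 7 days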
condition set: second compound 0.316 µM; first compound 0.0316 µM; hits give low values
Mark each entry satisfied if its viability, T/C sits below 90%, and not satisfied for all others.

stdin: Lab note: confirm whether the reported viability, T/C for this molecule is below 90%, equality not counting. molecule: COc1cccc2c1C(=O)c1c(O)c3c(c(O)c1C2=O)CC(O)(C(=O)CO)CC3OC1CC(N)C(O)C(C)O1 (stereo not given) + Cc1cccc(N(C)C(=O)C2C(O)CCN2c2nc(C)cc(C(F)(F)F)c2C#N)c1
stdout: satisfied

New cases:
stdin: Lab note: confirm whether the reported viability, T/C for this molecule is below 90%, equality not counting. molecule: C=CC(=O)N1CCN(c2nc(=O)n(-c3c(C)ccnc3C(C)C)c3nc(-c4c(O)cccc4F)c(F)cc23)C(C)C1 (stereo not given) + Nc1ccc(C#CCN(C(=O)Cc2ncc(C(F)(F)F)cc2C(F)(F)F)c2ccc(F)cc2)nn1
stdout: not satisfied

stdin: Lab note: confirm whether the reported viability, T/C for this molecule is below 90%, equality not counting. molecule: CC(C)n1c(=O)n(C)c2cnc3cc(F)c(-c4ccc(OCCCN5CCCCC5)nc4)cc3c21 + Nc1ccc(C#CCN(C(=O)Cc2ncc(C(F)(F)F)cc2C(F)(F)F)c2ccc(F)cc2)nn1
stdout: not satisfied

stdin: Lab note: confirm whether the reported viability, T/C for this molecule is below 90%, equality not counting. molecule: CCc1cc2c(N3CCc4c(cc(Cn5ccnc5)cc4-c4cn(C)nc4C(F)(F)F)C3=O)ccnc2c(OC)n1 + Nc1ccc(C#CCN(C(=O)Cc2ncc(C(F)(F)F)cc2C(F)(F)F)c2ccc(F)cc2)nn1
stdout: satisfied

stdin: Lab note: confirm whether the reported viability, T/C for this molecule is below 90%, equality not counting. molecule: CC[C@@]1(O)C(=O)OCc2c1cc1n(c2=O)Cc2cc3c(CN(C)C)c(O)ccc3nc2-1 + Nc1ccc(C#CCN(C(=O)Cc2ncc(C(F)(F)F)cc2C(F)(F)F)c2ccc(F)cc2)nn1
stdout: satisfied

stdin: Lab note: confirm whether the reported viability, T/C for this molecule is below 90%, equality not counting. molecule: CCc1cc2c(N3CCc4c(cc(Cn5ccnc5)cc4-c4cn(C)nc4C(F)(F)F)C3=O)ccnc2c(OC)n1 + Cc1cccc(N(C)C(=O)C2C(O)CCN2c2nc(C)cc(C(F)(F)F)c2C#N)c1
stdout: not satisfied

stdin: Lab note: confirm whether the reported viability, T/C for this molecule is below 90%, equality not counting. molecule: CCc1c2c(nc3ccc(O)cc13)-c1cc3c(c(=O)n1C2)COC(=O)[C@]3(O)CC + COC1C(OC(N)=O)C(O)C(Oc2ccc3c(O)c(NC(=O)c4ccc(O)c(CC=C(C)C)c4)c(=O)oc3c2C)OC1(C)C
stdout: satisfied

stdin: Lab note: confirm whether the reported viability, T/C for this molecule is below 90%, equality not counting. molecule: C=CCn1c(=O)c2cnc(Nc3ccc(N4CCN(C)CC4)cc3)nc2n1-c1cccc(C(C)(C)O)n1 + COC1C(OC(N)=O)C(O)C(Oc2ccc3c(O)c(NC(=O)c4ccc(O)c(CC=C(C)C)c4)c(=O)oc3c2C)OC1(C)C
stdout: not satisfied

stdin: Lab note: confirm whether the reported viability, T/C for this molecule is below 90%, equality not counting. molecule: COc1cccc2c1C(=O)c1c(O)c3c(c(O)c1C2=O)CC(O)(C(=O)CO)CC3OC1CC(N)C(O)C(C)O1 (stereo not given) + Nc1ccc(C#CCN(C(=O)Cc2ncc(C(F)(F)F)cc2C(F)(F)F)c2ccc(F)cc2)nn1
stdout: satisfied
